target: p/CIP-EGFP fusion (nuclear receptor coactivator 3, mouse); assay: p/CIP-EGFP fusion destabilizers, primary screen, fluorescence, F442A cells (AID 1984); conditions: 16 h;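 also: dose response run in MEF cells carrying p/CIP-EGFP rather than F442A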
Active and inactive are the calls of the source.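 The calls were made as follows: active = EGFP signal decrease of at least 30% at 10 µM or well 3 SD below plate mean, unless failing retest; inactive = the rest, including hits failing retest or dose response.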
Classes used: active, inactive

Molecule: Cc1oc2c(c1C(=O)NCc1cccnc1)C(=O)c1ccccc1C2=O
Label: active

Molecule: O=C1C(Nc2ccccc2)=C/C(=N/S(=O)(=O)c2cccs2)c2ccccc21
Label: active

Molecule: CCCc1nc2c(=O)n(C)c(=O)nc-2n(C)n1
Label: active

Molecule: COc1ccc(NC(=O)/C(Cl)=C(/Cl)S(=O)Cc2ccc(Cl)cc2)cn1 (centres undefined)
Label: inactive

Molecule: Cc1ccccc1NC1=C/C(=N\S(=O)(=O)c2cccs2)c2ccccc2C1=O
Label: active

Molecule: O=C1C(Nc2ccc(O)cc2)=C/C(=N/S(=O)(=O)c2cccs2)c2ccccc21
Label: active

Molecule: CCOC(=O)c1c(C)[nH]c2c1-c1ccccc1C(=O)C2=O
Label: active

Molecule: Nc1ccc2c(c1)C(=O)C(=O)c1ccccc1-2
Label: active

Molecule: COc1ccc(CS(=O)/C(Cl)=C(/Cl)C(=O)Nc2ccc(OC)nc2)cc1 (centres undefined)
Label: active

Molecule: CCOC(=O)N=Nc1c2ccccc2c2nc3no[nH]c3nc12
Label: active

Molecule: CC1CCN(S(=O)(=O)c2ccc3c(c2)C(=NO)c2cc(S(=O)(=O)N4CCC(C)CC4)ccc2-3)CC1
Label: active

Molecule: Cc1ccc(NC2=C/C(=N\S(=O)(=O)c3cccs3)c3ccccc3C2=O)c(C)c1
Label: active

Molecule: O=C1C(Cl)=C(NCCN2CCCCC2)C(=O)c2ccccc21
Label: active

Molecule: CC(C)(C)c1cc[n+](C2=C([O-])c3ccccc3C(=O)/C2=N\S(=O)(=O)c2cccs2)cc1
Label: active

Origin of measurements: PubChem BioAssay AID1984
